Molecular target: Serine/threonine-protein kinase 10 (Homo sapiens)
Sequence (O94804 whole entry): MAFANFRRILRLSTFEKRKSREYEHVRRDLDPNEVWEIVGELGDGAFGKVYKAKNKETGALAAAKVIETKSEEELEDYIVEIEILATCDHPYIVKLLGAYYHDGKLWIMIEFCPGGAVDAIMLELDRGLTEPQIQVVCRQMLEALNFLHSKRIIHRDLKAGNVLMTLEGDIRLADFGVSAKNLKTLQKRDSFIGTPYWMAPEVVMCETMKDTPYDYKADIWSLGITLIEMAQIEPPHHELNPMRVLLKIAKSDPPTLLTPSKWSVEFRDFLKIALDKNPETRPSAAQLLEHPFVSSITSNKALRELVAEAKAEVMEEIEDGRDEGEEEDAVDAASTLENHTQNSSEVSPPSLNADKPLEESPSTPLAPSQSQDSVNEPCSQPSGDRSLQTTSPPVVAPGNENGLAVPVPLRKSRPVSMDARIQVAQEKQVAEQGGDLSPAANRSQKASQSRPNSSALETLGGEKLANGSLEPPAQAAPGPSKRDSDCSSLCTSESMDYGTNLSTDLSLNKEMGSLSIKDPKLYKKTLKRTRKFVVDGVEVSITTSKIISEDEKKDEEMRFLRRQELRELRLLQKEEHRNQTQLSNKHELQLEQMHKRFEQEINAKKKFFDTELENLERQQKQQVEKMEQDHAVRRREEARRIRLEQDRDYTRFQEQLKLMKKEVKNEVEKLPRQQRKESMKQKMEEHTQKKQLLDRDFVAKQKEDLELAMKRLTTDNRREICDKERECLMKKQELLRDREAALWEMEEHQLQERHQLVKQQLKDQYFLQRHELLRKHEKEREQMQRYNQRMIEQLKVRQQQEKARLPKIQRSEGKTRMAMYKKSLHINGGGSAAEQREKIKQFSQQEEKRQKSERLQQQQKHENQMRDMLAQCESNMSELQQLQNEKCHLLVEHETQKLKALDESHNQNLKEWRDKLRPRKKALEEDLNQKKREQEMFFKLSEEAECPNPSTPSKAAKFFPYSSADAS
property-label: pIC50
Note: pIC50 values are expressed as the negative base-10 logarithm of concentration in M.

pIC50 lookup needed for Cn1cc(C2=C(c3cn(CCCSC(=N)N)c4ccccc34)C(=O)NC2=O)c2ccccc21 [BISINDOLYLMALEIMIDE IX] , thanks.
7.00
